System: MST1R
test.context: concentration: 1 μM,replicates: in singlicate; n = 1;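 further: KINOMEscan kinase panel screen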
measure: %Inh (%)
Give bare numbers, in %.

# count of solved cases: 5
INSERT INTO measurements (molecule, recorded_number) VALUES
  ('Cl.c1ccc(Oc2ccc(Nc3ccnc4cc(-c5ccc(CN6CCNCC6)o5)ccc34)cc2)nc1 [GW567142]', 39),
  ('O=C(Nc1ccc(Oc2ccc3nc(NC(=O)C4CC4)cn3n2)c(F)c1)c1cccn(-c2ccccc2)c1=O', 39),
  ('NC(=O)Nc1sc(-c2ccc(F)cc2)cc1C(N)=O [GW789449]', 0),
  ('Cc1ccc(Nc2ccnc(Nc3ccc4c(c3)CS(=O)(=O)C4)n2)cc1O.Cl [GW579362]', 81),
  ('NC(=O)c1ccc(-c2cc3ncnc(SCC(=O)O)c3s2)cc1', 21);

Please go through the list and note %Inh for each molecule.
1. COc1cccc(OC)c1C(=O)Nc1cccc(-c2nn3ccccc3c2-c2ccnc(Nc3cccc(F)c3)n2)c1 [GSK361065]
2. COc1cc(Nc2nccc(N3CCC(NC(=O)c4cccc(C#N)c4)C3)n2)cc(OC)c1OC (centres unmarked) [GSK1379751]
3. Cc1ccc(CC(=O)N2CCc3cc(-c4cn(C)c5ncnc(N)c45)ccc32)cc1 [GSK2634758]

1. 23
2. 21
3. 39

====

Kindly state %Inh for each of the entries shown.
Test system: PRKCD
test.context: concentration: 1 μM,replicates: in singlicate; n = 1
One number for each entry, in %.

INSERT INTO results (compound, endpoint_unit, recorded_number) VALUES
  ('CCNCC(Cc1ccccc1)NC(=O)c1cc(Br)c(-c2ccnc3[nH]ccc23)s1.Cl.Cl (centres unmarked) [GSK1383280]', '%', 91.7),
  ('COC(=O)Nc1nc2cc(Oc3ccc(NC(=O)Nc4cc(C(F)(F)F)ccc4Cl)cc3)ccc2[nH]1.Cl [GW697465]', '%', 0),
  ('CC(=O)Nc1ccc(-c2cc3ncnc(SCC(=O)O)c3s2)cc1', '%', 22),
  ('Cl.Nc1n[nH]c2cc(-c3ccccn3)ccc12 [GSK2189892]', '%', 0);

Tell me %Inh reported for C[C@@H](Oc1cc(-n2cnc3cc(-c4ccncc4)ccc32)sc1C(N)=O)c1ccccc1Cl [GSK479719]
0

====

System: AXL
test.context: concentration: 1 μM,replicates: in singlicate; n = 1
measure: %Inh (%)
One number for each entry, in %.

INSERT INTO results (compound, tested_on, recorded_number) VALUES
  ('CC(=O)Nc1ccc(-c2cc3ncnc(SCC(=O)O)c3s2)cc1', 'AXL', 36),
  ('CS(=O)(=O)Nc1ccc(-c2ccnc3[nH]ccc23)cc1', 'AXL', 76),
  ('CCn1c(-c2nonc2N)nc2cncc(Br)c21', 'AXL', 22),
  ('CCNCC(Cc1ccccc1)NC(=O)c1cc(Br)c(-c2ccnc3[nH]ccc23)s1.Cl.Cl (centres unmarked)', 'AXL', 63);

Hello, please tell me recorded %Inh for this one: "C[C@@H](Oc1cc(-n2cnc3ccc(-c4ccncc4)cc32)sc1C(N)=O)c1ccccc1Cl"
32

====

Field: %Inh. Provide a value for each of the molecules that follow.
Test system: MAP4K5
test.context: concentration: 1 μM,replicates: in singlicate; n = 1
Numbers only, in %.

INSERT INTO results (molecule, recorded_number) VALUES
  ('COc1cccc(CNC(=O)NC2CCN(c3ccnc(Nc4cc(OC)c(OC)c(OC)c4)n3)C2)c1 (stereo not drawn)', 3),
  ('COc1ccc(Nc2nccc(N3CCC(NC(=O)c4cccc(C#N)c4)C3)n2)cc1 (stereo not drawn)', 10),
  ('CC(C(=O)NC1CCN(c2ccnc(Nc3ccc(F)cc3)n2)C1)c1ccc(Cl)cc1 (stereo not drawn)', 4),
  ('COC(=O)Nc1nc2cc(Oc3ccc(NC(=O)Nc4cc(C(F)(F)F)ccc4Cl)cc3)ccc2[nH]1.Cl', 23);

Look up %Inh for the entries below, preserving their order.
1. O=C(Nc1cccc(C(F)(F)F)c1)c1cccc(Oc2ccc3nccn3n2)c1
2. Cc1cccc(-c2nc(Nc3ccncc3)c3sccc3n2)n1
3. C[C@@H]1CNc2c(sc3ccc4nc(-c5ccncc5)ccc4c23)C(=O)N1
4. Cc1ccc(Nc2ccnc(Nc3ccc4c(c3)CS(=O)(=O)C4)n2)cc1O.Cl
5. C[C@@H](Oc1cc(-n2cnc3cc(-c4cnn(C)c4)ccc32)sc1C(N)=O)c1ccccc1Cl
6. COc1cc(Nc2nccc(N3CCC(NC(=O)c4cccc(C#N)c4)C3)n2)cc(OC)c1OC (stereo not drawn)
7. c1ccc(Oc2ccc(Nc3ccnc4ccc(-c5ccccn5)cc34)cc2)cc1

1. 23
2. 11
3. 0
4. 33
5. 98.9
6. 0
7. 13

Give one value of %Inh per listed molecule.
1. O=C(Nc1n[nH]c2cc(-c3ccco3)ccc12)C1CC1
2. CCCC(=O)Nc1n[nH]c2ncccc12
3. O=C(Nc1ccc(Oc2ccc3nc(NC(=O)C4CC4)cn3n2)c(F)c1)c1cccn(-c2ccccc2)c1=O
4. CN(c1ccc2c(c1)nc(NCc1ccc(F)cc1)n2C)c1ccnc(Nc2ccc(CS(C)(=O)=O)cc2)n1.Cl
5. COc1cccc(C2=C(Nc3cccc(Cl)c3)C(=O)NC2=O)c1
6. C[C@@H]1CNc2c(sc3ccc4nc(-c5ccc(O)cc5)ccc4c23)C(=O)N1
7. O=C1NCCc2[nH]c(-c3ccncc3)cc21

[0, 0, 0, 11, 2, 13, 6]

====

System: CDK4-cyclinD1
test.context: concentration: 1 μM,replicates: in singlicate; n = 1
Give %Inh for every item shown.

INSERT INTO measurements (compound, measure, result) VALUES
  ('Cc1nnc(-c2ccc3occ(-c4ccc(S(C)=O)cc4)c3n2)o1 (stereo not drawn)', '%Inh', '0%'),
  ('Cc1cccc2c(-c3ccncc3)c(-c3ccc(F)cc3)nn12.Cl', '%Inh', '0%'),
  ('Cn1ccc2ncnc(Oc3ccc(NC(=O)Nc4cc(C(C)(C)C)on4)c(Cl)c3)c21', '%Inh', '0%'),
  ('Cl.Cl.NC[C@H](CC1CCCCC1)NC(=O)c1ccc(-c2ccnc3[nH]ccc23)s1', '%Inh', '0%'),
  ('CS(=O)(=O)Nc1ccc(-c2ccnc3[nH]ccc23)cc1', '%Inh', '0%'),
  ('COc1cccc(C2=C(Nc3cccc(Cl)c3)C(=O)NC2=O)c1', '%Inh', '0%'),
  ('C[C@@H](Oc1cc(-n2cnc3cc(-c4cnn(C)c4)ccc32)sc1C(N)=O)c1ccccc1Cl', '%Inh', '0%'),
  ('N#Cc1cccc(C(=O)NC2CCN(c3ccnc(Nc4ccc(F)cc4)n3)C2)c1 (stereo not drawn)', '%Inh', '0%');

Fill in %Inh for each of the 4 compounds listed.
1. Nc1nccc(-c2ccc3c(N)n[nH]c3c2)n1
2. CCN1CCN(CCCC(=O)Nc2n[nH]c3nc(-c4ccc(O)cc4)c(Br)cc23)CC1
3. NC(=O)Nc1sc(-c2ccc(F)cc2)cc1C(N)=O
4. CS(=O)(=O)c1cccc(CNc2nc(Nc3ccc4c(c3)[C@@H]3C[C@@H]4CNC3=O)ncc2C(F)(F)F)c1

1: 0%; 2: 99.5%; 3: 30%; 4: 97.1%

For each listed entry, give its %Inh.
1. CN1CCN(CCCNc2nccc(-c3c(-c4ccc(F)cc4)nn4cc(C(N)=O)ccc34)n2)CC1
2. CC(C)c1nc(-c2cccc(NS(=O)(=O)c3ccccc3)c2)c(-c2ccnc(Nc3ccc4c(c3)CN(C)CC4)n2)s1
3. COc1cc(Nc2nccc(N3CCC(NC(=O)c4cccc(C#N)c4)C3)n2)cc(OC)c1OC (stereo not drawn)

1: 0%; 2: 65%; 3: 5%

Return reported %Inh values for all items listed beneath this line.
1. NC(=O)c1ccc(-c2cc3ncnc(SCC(=O)O)c3s2)cc1
2. Cc1ccc(Nc2ccnc(Nc3ccc4c(c3)CS(=O)(=O)C4)n2)cc1O.Cl

1: 1%; 2: 88%

Provide %Inh value for the following compound: "Cn1cc(-c2cccc3c(N)c(C(N)=O)nnc23)cn1"
8%

====

Tested on: DCAMKL1
Construct: gene DCLK1
test.context: concentration: 1 μM,replicates: in singlicate; n = 1
measure: %Inh
Record the result as number plus unit.

Worked set:
INSERT INTO results (molecule, result) VALUES
  ('Cn1ccc2ncnc(Oc3ccc(NC(=O)Nc4cc(C(C)(C)C)on4)c(Cl)c3)c21', '25%'),
  ('COc1cc2nccc(Nc3ccc(Oc4ccccc4)cc3)c2cc1OC.Cl [GI261656]', '0%'),
  ('Cc1cccc(-c2nc(Nc3ccncc3)c3sccc3n2)n1 [GW869641]', '0%'),
  ('NC(=O)c1ccc(-c2cc3ncnc(SCC(=O)O)c3s2)cc1', '20%'),
  ('C[C@@H](Oc1cc(-n2cnc3cc(-c4ccncc4)ccc32)sc1C(N)=O)c1ccccc1Cl [GSK479719]', '0%');

// batch mode: one %Inh value per listed entry
1. Cc1ccc(C(=O)Nc2ccc(Oc3ccc4nc(NC(=O)C5CC5)cn4c3)c(F)c2)c(=O)n1-c1ccccc1
2. N#Cc1cccc(C(=O)NC2CCN(c3ccnc(Nc4ccc(F)cc4)n3)C2)c1 (stereo not drawn) [GSK1379708]
3. CN(c1ccccc1CNc1nc(Nc2ccc3c(c2)CC(=O)N3)ncc1C(F)(F)F)S(C)(=O)=O
4. CC(=O)Nc1ccc(-c2cc3ncnc(SCC(=O)O)c3s2)cc1

["2%", "0%", "21%", "0%"]
